Numbers sourced from the METLIN SMRT retention time set (Domingo-Almenara et al. 2019).

Assay: gradient 5% acetonitrile 3 min, to 50% in 2 min, to 85% in 15 min, held 3 min, 100 µL/min
Conditions: column: Zorbax Extend-C18 2.1 x 50 mm; eluents: water / acetonitrile, 0.1% formic acid
Each entry gets F if its RP-LC retention time stays under 800 s, and T if its RP-LC retention time is 800 s or above.

{"molecule": "Cc1occc1C(=O)NC1CCc2nn(CC3CC3)c(=O)n2CC1 (stereo not given)", "assigned_label": "F"}

Prompt: Entry COCCN1CCC(N2CCN(S(=O)(=O)c3ccc(F)c(Cl)c3)CC2)C1=O (stereo not given) : is its RP-LC retention time no less than 800 s?
Response: F

Prompt: Entry Cc1nn(-c2ccc(F)cc2)c2nc(N3CCCC(C(=O)NCCc4ccco4)C3)sc12 (stereo not given) : is its RP-LC retention time no less than 800 s?
Response: T

Prompt: Entry Cc1ccc(CNC(=O)Cn2ncc3c(c2=O)N(C2CC2)C(=O)CS3)cc1C : is its RP-LC retention time no less than 800 s?
Response: F

Prompt: Entry CCN1CCN(c2ccc(-c3ccc(C)c(S(=O)(=O)N4CCOCC4)c3)nn2)CC1 : is its RP-LC retention time no less than 800 s?
Response: F

Prompt: Entry COc1ccc(NC(=O)C2CCCN(c3ncnc4c3nc3n4CCCCC3)C2)cc1 (stereo not given) : is its RP-LC retention time no less than 800 s?
Response: F

Prompt: Entry CCOc1ccc(CNC(=O)C2CCN(S(=O)(=O)c3cn(C(C)C)cn3)CC2)cc1OC : is its RP-LC retention time no less than 800 s?
Response: F

Prompt: Entry CCN(CCN(C)C)c1ccc(C(=O)O)cc1NS(=O)(=O)c1cc(F)ccc1C : is its RP-LC retention time no less than 800 s?
Response: F
